Test: Restrictive medium S. cerevisiae growth inhibition, OD615, pilot screen of yeast lifespan reduction project, restrictive growth control (AID 706);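 further: modified DeaD lifespan yeast strain shifted to restrictive glucose medium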
Details: OD615, 48 h, at 10 µM, stronger effect = higher value
Exercise: for every item that follows, state its recorded growth inhibition.
The reply should be a number in %, with the unit left off.

INPUT: Given the molecule "CCn1c(O)c(C2=NCCCC2)c2ccccc21" , what is its reported growth inhibition?
OUTPUT: 11.6

INPUT: Also check "Cc1nc2nc(SCC(=O)N3CCOCC3)nn2c(C)c1Cc1ccccc1"
OUTPUT: 1.59

INPUT: Also check "CC(C)c1ccc(-c2nc(N3CCCC3)nc3n[nH]c(N)c23)cc1"
OUTPUT: 10.3

INPUT: Also check "CCN(CC)c1cc(C)c2cc(NC(=O)CNC(C)=O)ccc2n1"
OUTPUT: -8.29

INPUT: Also check "CN1CCN(S(=O)(=O)c2ccc(-c3ccc(S(=O)(=O)N4CCN(C)CC4)cc3)cc2)CC1"
OUTPUT: -19.1

INPUT: Also check CC(Sc1nc2ccccc2s1)C(=O)N1CCOCC1 (centres undefined)
OUTPUT: 2.68

INPUT: Also check N#Cc1nc(-c2ccccc2Cl)oc1NCC1CCCO1 (centres undefined)
OUTPUT: 8.84

INPUT: Also check "CCNC(=O)c1c(N)sc2c1CCCCC2"
OUTPUT: 1.6

INPUT: Also check "COc1ccc(N(CC(=O)N2CCN(c3ccccc3)CC2)S(=O)(=O)c2c(C)noc2C)cc1"
OUTPUT: -0.83

INPUT: Also check "O=C(c1ccc(Br)o1)N1CCN=C1SCc1cccnc1"
OUTPUT: -6.34

INPUT: Also check "CN1CCc2c(sc3c2c(=O)n(-c2ccc(Cl)cc2)c2nncn32)C1"
OUTPUT: 7.29

INPUT: Also check "CCOC(=O)C1CCN(S(=O)(=O)c2cc(Br)cc3c2N(C(=O)C2CC2)CC3)CC1"
OUTPUT: -13.7

INPUT: Also check CCC1CCCCN1C(=O)CSc1nc2c([nH]c3ccccc32)c(=O)n1C (centres undefined)
OUTPUT: -4.4

INPUT: Also check "CCOc1ccccc1NC(=O)c1c(NC(=O)CNCc2ccco2)sc2c1CCC2"
OUTPUT: -15.1

INPUT: Also check CCCSc1nnc2c(n1)OC(c1cccn1C)N(C(C)=O)c1ccccc1-2 (centres undefined)
OUTPUT: -5.99

INPUT: Also check O=C(NC1=NCCS1)C1CC2CCC1C2 (centres undefined)
OUTPUT: 6.69

INPUT: Also check "C=CCNc1ncnc2ccc(Br)cc12"
OUTPUT: 9.25

INPUT: Also check CSC1=NCCN1C(=O)C(C)Oc1ccccc1 (centres undefined)
OUTPUT: -0.77

INPUT: Also check "CCNc1nc(Oc2ccc(C(=O)OCC)cc2)nc(SC)n1"
OUTPUT: 1.57

INPUT: Also check "CCCc1cc(C(=O)N(C2CCCCC2)C2CCCCC2)no1"
OUTPUT: 14.7

INPUT: Also check "CSC1=NCCN1C(=O)c1cccs1"
OUTPUT: 11.1

INPUT: Also check COc1cc2c(cc1OC)C(c1cccs1)NCC2 (centres undefined)
OUTPUT: -8.06

INPUT: Also check "COc1ccc(Cl)cc1Nc1cc(C)nc2nc(C)nn12"
OUTPUT: -6.77

INPUT: Also check "COc1cc(S(=O)(=O)N2CCN(Cc3ccc4c(c3)OCO4)CC2)c(C)cc1C"
OUTPUT: -11.6

The origin of these recorded values is PubChem BioAssay.
